target-of-assay: HLA-A*02:01 (Homo sapiens, UniProt P04439, D140Y/D185E/D98H/E176V/E277Q/G131W/G231S/I119V/I121R/I166T/I218V/L300P/L318F/N151K/N90K/P208A/P217A/Q86G/Q94H/R138H/R169H/T345S)
procedure-text: MHC binding assay: UV-ligand exchange and β2m ELISA (peptide exchange yield, Table 7)
condition-parameters: binding of HLA-class I restricted peptides to HLA-A*02:01, UV-ligand exchange
readout: Peptide exchange (MHC class I binding score, peptide exchange yield)

See these solved cases before continuing.
substance: 133 (FLDGRPLTL; listed as Homo sapiens) [compound 133]
observed-value: ++ (≥20% = ++)

substance: 261 (GLAALAVHL; listed as Homo sapiens) [compound 261]
observed-value: +++ (≥50% = +++)

substance: 116 (ALLSSVAEA; listed as Homo sapiens) [compound 116]
observed-value: ++ (≥20% = ++)

substance: 276 (RMPTVLQCV; listed as Homo sapiens) [compound 276]
observed-value: +++ (≥50% = +++)

substance: 277 (KLQEELNKV; listed as Homo sapiens) [compound 277]
observed-value: +++ (≥50% = +++)

substance: 207 (KLFETVEEL; listed as Homo sapiens) [compound 207]
observed-value: +++ (≥50% = +++)

substance: 74 (GLAFLPASV; listed as Homo sapiens) [compound 74]
observed-value: ++ (≥20% = ++)

Now, please, on to the next substance.
Query: Returns the measured Peptide exchange (MHC class I binding score, peptide exchange yield) for the input substance. Input: 80 (VLTGQVHEL; listed as Homo sapiens) [compound 80]
Response: +++ (≥50% = +++)
